# Tested on: Tribolium castaneum
# testDetails: Insecticidal activity against 3 to 8 days old Tribolium castaneum (red flour beetle) assessed as mortality at 1 ug/mL measured after 48/ hr by fumigation assay
# Assay type: functional
Decision: mortality at 1 µg/mL beneath 90% gives 1; mortality at 1 µg/mL meeting or exceeding 90% gives -1.

Q: Strictly below 90% in mortality at 1 µg/mL? `COc1c(CC=C(C)C)c2c(c3oc(=O)c(-c4ccc(O)cc4)c(O)c13)C=CC(C)(C)O2`
Result: 1

Q: Strictly below 90% in mortality at 1 µg/mL? `CC(C)=CCc1c2c(c(O)c3c(=O)c(-c4ccc(O)cc4)coc13)C=CC(C)(C)O2`
Result: 1

Q: Strictly below 90% in mortality at 1 µg/mL? `CC(C)=CCc1c2c(c(O)c3c(=O)cc(-c4ccc(O)cc4)oc13)C=CC(C)(C)O2`
Result: -1

Q: Strictly below 90% in mortality at 1 µg/mL? `COc1ccc(-c2c(O)c3c(OC)c(CC=C(C)C)c4c(c3oc2=O)C=CC(C)(C)O4)cc1`
Result: 1

====

# Tested on: Tribolium castaneum
# testDetails: Insecticidal activity against 3 to 8 days old Tribolium castaneum (red flour beetle) assessed as mortality at 1 ug/mL measured after 72 hr by fumigation assay
# Type: functional
parameterMeasured: mortality at 1 µg/mL
Returns: string containing the number followed by the unit.

Field: example entries. Status: answers known.
compound	mortality at 1 µg/mL
COc1c(CC=C(C)C)c2c(c3occ(-c4ccc(O)cc4)c(=O)c13)C=CC(C)(C)O2 [SCANDINONE]	100%
O=c1c(-c2ccc(O)cc2)coc2cc(O)cc(O)c12 [GENISTEIN]	100%
CC(C)=CCc1cc(-c2coc3cc(O)c(CC=C(C)C)c(O)c3c2=O)ccc1O [LUPALBIGENIN]	91%

# evaluate next
Measured mortality at 1 µg/mL, COc1c(CC=C(C)C)c2c(c3oc(=O)c(-c4ccc(O)cc4)c(O)c13)C=CC(C)(C)O2 [SCANDENIN] : 32.2%

====

Here, each record is paired with measured mortality at 1 µg/mL data.
# Tested on: Sitophilus oryzae
# testDetails: Insecticidal activity against 3 to 8 days old Sitophilus oryzae (rice weevil) assessed as mortality at 1 ug/mL measured after 24 hr by fumigation assay
# Type: functional

Field: example entries. Status: answers known.
molecule	assayValue
COc1ccc(-c2c(O)c3c(OC)c(CC=C(C)C)c4c(c3oc2=O)C=CC(C)(C)O4)cc1 [SCANDENIN A]	69.4%
COc1c(CC=C(C)C)c2c(c3occ(-c4ccc(O)cc4)c(=O)c13)C=CC(C)(C)O2 [SCANDINONE]	100%
O=c1c(-c2ccc(O)cc2)coc2cc(O)cc(O)c12 [GENISTEIN]	100%
CC(C)=CCc1cc(-c2coc3cc(O)c(CC=C(C)C)c(O)c3c2=O)ccc1O [LUPALBIGENIN]	100%

# evaluate next
Measured mortality at 1 µg/mL, COc1c(CC=C(C)C)c2c(c3oc(=O)c(-c4ccc(O)cc4)c(O)c13)C=CC(C)(C)O2 [SCANDENIN] : 82%

====

# Test system: Sitophilus oryzae
# testDetails: Insecticidal activity against 3 to 8 days old Sitophilus oryzae (rice weevil) assessed as mortality at 1 ug/mL measured after 24 hr by fumigation assay
# Type: functional
parameterMeasured: mortality at 1 µg/mL
Returns: string containing the number followed by the unit.

Field: example entries. Status: answers known.
compound	mortality at 1 µg/mL
CC(C)=CCc1c2c(c(O)c3c(=O)cc(-c4ccc(O)cc4)oc13)C=CC(C)(C)O2	100%
CC(C)=CCc1c2c(c(O)c3c(=O)c(-c4ccc(O)cc4)coc13)C=CC(C)(C)O2	50.1%
C[C@@H]1O[C@@H](OC[C@H]2O[C@@H](Oc3cc(O)c4c(=O)c(-c5ccc(O)cc5)coc4c3)[C@H](O)[C@@H](O)[C@@H]2O)[C@H](O)[C@H](O)[C@H]1O [SPHAEROBIOSIDE]	100%

# evaluate next
Simply: `CC(C)=CCc1c2c(c3occ(-c4ccc(O)cc4)c(=O)c3c1O)C=CC(C)(C)O2` , Sitophilus oryzae, mortality at 1 µg/mL = 100%
